Origin of values: ChEMBL document CHEMBL4024768

Experiment: Tmax in Sprague-Dawley rat plasma at 1 umol/kg, it administered as micronized powder measured up to 24 hrs post dose by electrospray LC-MS analysis
Assay type: ADME, cell-free
Settings: inhaled or intranasal
parameter: Tmax (min)

CN(C)C(=O)c1cccc(S(=O)(=O)N2CCS[C@H]2C(=O)O[C@@H](Cc2c(Cl)c[n+]([O-])cc2Cl)c2ccc(OC(F)F)c(OCC3CC3)c2)c1 :: 4.98
CN(C)C(=O)c1cccc(S(=O)(=O)N2CCC[C@H]2C(=O)O[C@@H](Cc2c(Cl)c[n+]([O-])cc2Cl)c2ccc(OC(F)F)c(OCC3CC3)c2)c1 (relative stereo) :: 4.98

* * *

Experiment: Protein binding in human plasma at 5 uM after 5 hrs by LC-MS/MS analysis
Type: ADME, cell-free
Settings: read-out: PPB (converted)
parameter: fraction unbound at 5 h, 5 µM

COc1ccc(S(=O)(=O)N2CCS[C@H]2C(=O)O[C@@H](Cc2c(Cl)c[n+]([O-])cc2Cl)c2ccc(OC(F)F)c(OCC3CC3)c2)cc1OC (relative stereo) :: 0.004
CN(C)C(=O)c1cccc(S(=O)(=O)N2CCS[C@H]2C(=O)O[C@@H](Cc2c(Cl)c[n+]([O-])cc2Cl)c2ccc(OC(F)F)c(OCC3CC3)c2)c1 :: 0.0021
COc1ccc(S(=O)(=O)N2CCCC[C@H]2C(=O)O[C@@H](Cc2c(Cl)c[n+]([O-])cc2Cl)c2ccc(OC(F)F)c(OCC3CC3)c2)cc1C(=O)N(C)C (relative stereo) :: 0.0023
CN(C)C(=O)c1cccc(S(=O)(=O)N2CCC[C@H]2C(=O)O[C@@H](Cc2c(Cl)c[n+]([O-])cc2Cl)c2ccc(OC(F)F)c(OCC3CC3)c2)c1 (relative stereo) :: 0.0035
Cn1cnc(S(=O)(=O)N2CCS[C@H]2C(=O)O[C@@H](Cc2c(Cl)c[n+]([O-])cc2Cl)c2ccc(OC(F)F)c(OCC3CC3)c2)c1 :: 0.015

I. COc1ccc(S(=O)(=O)N2CCC[C@H]2C(=O)O[C@@H](Cc2c(Cl)c[n+]([O-])cc2Cl)c2ccc(OC(F)F)c(OCC3CC3)c2)cc1C(=O)N(C)C (relative stereo)
II. COc1ccc(S(=O)(=O)N2CCS[C@H]2C(=O)O[C@@H](Cc2c(Cl)c[n+]([O-])cc2Cl)c2ccc(OC(F)F)c(OCC3CC3)c2)cc1C(=O)N(C)C (relative stereo)
Ask: Which of the two gives a bigger number for fraction unbound at 5 h, 5 µM: I or II ? When you have decided, please share the label of that item.
Reply: I

* * *

Biological target: Dual 3',5'-cyclic-AMP and -GMP phosphodiesterase 11A (Homo sapiens)
Sequence (Q9HCR9 whole entry): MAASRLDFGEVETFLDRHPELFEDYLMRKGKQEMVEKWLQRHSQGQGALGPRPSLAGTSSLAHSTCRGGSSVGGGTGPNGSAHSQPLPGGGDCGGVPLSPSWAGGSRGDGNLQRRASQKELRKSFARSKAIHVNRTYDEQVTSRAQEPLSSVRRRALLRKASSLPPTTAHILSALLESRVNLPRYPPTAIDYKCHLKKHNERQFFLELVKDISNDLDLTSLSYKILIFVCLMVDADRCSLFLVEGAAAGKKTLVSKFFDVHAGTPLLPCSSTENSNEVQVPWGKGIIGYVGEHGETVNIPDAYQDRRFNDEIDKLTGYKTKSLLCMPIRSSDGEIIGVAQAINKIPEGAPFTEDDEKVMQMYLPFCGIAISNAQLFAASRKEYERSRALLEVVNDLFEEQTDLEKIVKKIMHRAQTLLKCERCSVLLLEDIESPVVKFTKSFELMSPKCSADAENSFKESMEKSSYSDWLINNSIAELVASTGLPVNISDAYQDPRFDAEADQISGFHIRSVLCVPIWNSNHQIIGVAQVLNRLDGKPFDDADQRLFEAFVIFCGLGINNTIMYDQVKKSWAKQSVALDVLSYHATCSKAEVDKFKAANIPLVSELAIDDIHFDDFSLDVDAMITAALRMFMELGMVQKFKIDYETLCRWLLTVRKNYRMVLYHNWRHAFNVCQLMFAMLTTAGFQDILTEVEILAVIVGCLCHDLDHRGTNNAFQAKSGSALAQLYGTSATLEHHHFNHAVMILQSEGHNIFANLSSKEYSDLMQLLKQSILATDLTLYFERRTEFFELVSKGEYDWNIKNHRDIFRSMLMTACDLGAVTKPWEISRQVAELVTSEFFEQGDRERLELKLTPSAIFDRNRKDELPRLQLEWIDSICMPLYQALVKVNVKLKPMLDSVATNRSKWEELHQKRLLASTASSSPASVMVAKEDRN
Test: Inhibition of human recombinant PDE11A4 expressed insect sf9 cells by radiometric assay
pIC50: −log10 of the molar value.
parameter: pIC50

CN(C)C(=O)c1cccc(S(=O)(=O)N2CCS[C@H]2C(=O)O[C@@H](Cc2c(Cl)c[n+]([O-])cc2Cl)c2ccc(OC(F)F)c(OCC3CC3)c2)c1 :: < 4.52

Field: next compound
Ask: // returns reported pIC50 for input CN(C)C(=O)c1cccc(S(=O)(=O)N2CCC[C@H]2C(=O)O[C@@H](Cc2c(Cl)c[n+]([O-])cc2Cl)c2ccc(OC(F)F)c(OCC3CC3)c2)c1 (relative stereo)
Reply: < 4.52
